Please respond with reported fraction unbound for every item in the list.
- METHOD: Fraction unbound in Sprague-Dawley rat at 0.5 mg/kg, iv and 5 mg/kg, po
- Assay type: ADME, organism-based
- MEASUREMENT CONDITIONS: plasma
Would you mind answering with just the numeric figure?

Req: // fraction unbound lookup, key: `CC(C)S(=O)(=O)c1ccn([C@@H](CC2CCCC2)C(=O)Nc2ccn(C)n2)c(=O)c1`
Resp: 0.59

Req: // repeat for `Cc1cnc(NC(=O)[C@H](CC2CCCC2)n2ccc(S(C)(=O)=O)cc2=O)cn1` and report
Resp: 0.35

----------
- METHOD: Half life in Sprague-Dawley rat at 0.5 mg/kg, iv and 5 mg/kg, po
- Type: ADME, organism-based
- MEASUREMENT CONDITIONS: in vivo
MEASURED ENDPOINT: half-life (min)
Report only the number, with the unit min understood.

Req: // half-life lookup, key: `Cc1cnc(NC(=O)[C@H](CC2CCCC2)n2ccc(S(C)(=O)=O)cc2=O)cn1`
Resp: 12

Req: // repeat for `CC(C)S(=O)(=O)c1ccn([C@@H](CC2CCCC2)C(=O)Nc2ccn(C)n2)c(=O)c1` and report
Resp: 12

----------
Please respond with reported CLhep predicted at 1 µM for every item in the list.
- METHOD: Hepatic clearance in human liver microsome at 1 uM by LC/MS/MS analysis
- Assay type: ADME
- MEASUREMENT CONDITIONS: liver microsomes
Report only the number, with the unit mL/min/kg understood.

Req: // CLhep predicted at 1 µM lookup, key: `CC(C)S(=O)(=O)c1ccn([C@@H](CC2CCCC2)C(=O)Nc2ccn(C)n2)c(=O)c1`
Resp: 10

Req: // repeat for `Cc1ccc(NC(=O)[C@H](CC2CCC(F)(F)CC2)n2ccc(S(=O)(=O)C(C)C)cc2=O)nc1` and report
Resp: 8

Req: // repeat for `Cc1ccc(NC(=O)[C@H](CC2CCCC2)n2ccc(S(C)(=O)=O)cc2=O)nc1` and report
Resp: 5

----------
- METHOD: Hepatic clearance in rat liver microsome at 1 uM by LC/MS/MS analysis
- Assay type: ADME
- MEASUREMENT CONDITIONS: liver microsomes
Please respond with reported CLhep predicted at 1 µM for every item in the list.

Req: // CLhep predicted at 1 µM lookup, key: `Cc1ccc(NC(=O)[C@H](CC2CCC(F)(F)CC2)n2ccc(S(=O)(=O)C(C)C)cc2=O)nc1`
Resp: 2.16 L/h/kg

Req: // repeat for `CCS(=O)(=O)c1ccn([C@@H](CC2CCOCC2)C(=O)Nc2ccc(C)cn2)c(=O)c1` and report
Resp: < 1.08 L/h/kg

Req: // repeat for `Cc1ccc(NC(=O)[C@H](CC2CCCC2)n2ccc(S(C)(=O)=O)cc2=O)nc1` and report
Resp: 3.48 L/h/kg

Req: // repeat for `Cc1cnc(NC(=O)[C@H](CC2CCCC2)n2ccc(S(C)(=O)=O)cc2=O)cn1` and report
Resp: 1.86 L/h/kg

Req: // repeat for `CC(C)S(=O)(=O)c1ccn([C@@H](CC2CCCC2)C(=O)Nc2ccn(C)n2)c(=O)c1` and report
Resp: 3.48 L/h/kg

----------
- METHOD: Half life in rat liver microsome at 1 uM by LC/MS/MS analysis
- Format: ADME
- MEASUREMENT CONDITIONS: liver microsomes
MEASURED ENDPOINT: half-life at 1 µM

Req: // half-life at 1 µM lookup, key: `Cc1ccc(NC(=O)[C@H](CC2CCC(F)(F)CC2)n2ccc(S(=O)(=O)C(C)C)cc2=O)nc1`
Resp: 42 min

Req: // repeat for `Cc1ccc(NC(=O)[C@H](CC2CCCC2)n2ccc(S(C)(=O)=O)cc2=O)nc1` and report
Resp: 9 min

Req: // repeat for `CC(C)S(=O)(=O)c1ccn([C@@H](CC2CCCC2)C(=O)Nc2ccn(C)n2)c(=O)c1` and report
Resp: 8 min

Req: // repeat for `CCS(=O)(=O)c1ccn([C@@H](CC2CCOCC2)C(=O)Nc2ccc(C)cn2)c(=O)c1` and report
Resp: > 120 min

Req: // repeat for `Cc1cnc(NC(=O)[C@H](CC2CCCC2)n2ccc(S(C)(=O)=O)cc2=O)cn1` and report
Resp: 56 min
